# Tested on: mouse macrophage cell line, RAW264
# experimental protocol: Inhibition of LPS-induced nitric oxide (NO) production, nitrite by Griess reaction
# Type: cell-based
# test conditions: 10⁻⁵ M test compound, RAW264, 1 µg/ml LPS, 36hr
Marks after values point to notes of the source that are not given here.
Form field: Inhibition (%) of NO production at the concentration of 10⁻⁵ M (one value per entry).

Consider the following illustrative entries.
1) [O-][S+](Cc1ccc(C(F)(F)F)cc1)c1nnc(OCc2ccc(C(F)(F)F)cc2)c2nccn12 (stereo not drawn) [Example 42]; 8 * %
2) [O-][S+](Cc1ccc(Cl)cc1)c1nnc(OCc2ccc(Cl)cc2)c2nccn12 (stereo not drawn) [Example 35]; 20 * %
3) [O-][S+](Cc1ccc(Cl)cc1)c1nnc(OCc2ccc(Cl)cc2)c2cccn12 (stereo not drawn) [Example 36]; 31 * %
4) Cc1ncn2c([S+]([O-])Cc3ccc(Cl)cc3)nnc(O)c12 (stereo not drawn) [Example 33]; 4 * %
5) [O-][S+](Cc1cccc(Cl)c1)c1nnc(OCc2cccc(Cl)c2)c2nccn12 (stereo not drawn) [Example 40]; 32 * %

**Query** Entry N#Cc1ccc(COc2nnc([S+]([O-])Cc3ccc(C#N)cc3)n3ccnc23)cc1 (stereo not drawn) [Example 41] has what Inhibition (%) of NO production at the concentration of 10⁻⁵ M?
**Result** 49 * %
